# Lookup of reported DC50 keyed by entry
# testSystem: SMARCA2 (Homo sapiens)
# Sequence (P51531 whole entry): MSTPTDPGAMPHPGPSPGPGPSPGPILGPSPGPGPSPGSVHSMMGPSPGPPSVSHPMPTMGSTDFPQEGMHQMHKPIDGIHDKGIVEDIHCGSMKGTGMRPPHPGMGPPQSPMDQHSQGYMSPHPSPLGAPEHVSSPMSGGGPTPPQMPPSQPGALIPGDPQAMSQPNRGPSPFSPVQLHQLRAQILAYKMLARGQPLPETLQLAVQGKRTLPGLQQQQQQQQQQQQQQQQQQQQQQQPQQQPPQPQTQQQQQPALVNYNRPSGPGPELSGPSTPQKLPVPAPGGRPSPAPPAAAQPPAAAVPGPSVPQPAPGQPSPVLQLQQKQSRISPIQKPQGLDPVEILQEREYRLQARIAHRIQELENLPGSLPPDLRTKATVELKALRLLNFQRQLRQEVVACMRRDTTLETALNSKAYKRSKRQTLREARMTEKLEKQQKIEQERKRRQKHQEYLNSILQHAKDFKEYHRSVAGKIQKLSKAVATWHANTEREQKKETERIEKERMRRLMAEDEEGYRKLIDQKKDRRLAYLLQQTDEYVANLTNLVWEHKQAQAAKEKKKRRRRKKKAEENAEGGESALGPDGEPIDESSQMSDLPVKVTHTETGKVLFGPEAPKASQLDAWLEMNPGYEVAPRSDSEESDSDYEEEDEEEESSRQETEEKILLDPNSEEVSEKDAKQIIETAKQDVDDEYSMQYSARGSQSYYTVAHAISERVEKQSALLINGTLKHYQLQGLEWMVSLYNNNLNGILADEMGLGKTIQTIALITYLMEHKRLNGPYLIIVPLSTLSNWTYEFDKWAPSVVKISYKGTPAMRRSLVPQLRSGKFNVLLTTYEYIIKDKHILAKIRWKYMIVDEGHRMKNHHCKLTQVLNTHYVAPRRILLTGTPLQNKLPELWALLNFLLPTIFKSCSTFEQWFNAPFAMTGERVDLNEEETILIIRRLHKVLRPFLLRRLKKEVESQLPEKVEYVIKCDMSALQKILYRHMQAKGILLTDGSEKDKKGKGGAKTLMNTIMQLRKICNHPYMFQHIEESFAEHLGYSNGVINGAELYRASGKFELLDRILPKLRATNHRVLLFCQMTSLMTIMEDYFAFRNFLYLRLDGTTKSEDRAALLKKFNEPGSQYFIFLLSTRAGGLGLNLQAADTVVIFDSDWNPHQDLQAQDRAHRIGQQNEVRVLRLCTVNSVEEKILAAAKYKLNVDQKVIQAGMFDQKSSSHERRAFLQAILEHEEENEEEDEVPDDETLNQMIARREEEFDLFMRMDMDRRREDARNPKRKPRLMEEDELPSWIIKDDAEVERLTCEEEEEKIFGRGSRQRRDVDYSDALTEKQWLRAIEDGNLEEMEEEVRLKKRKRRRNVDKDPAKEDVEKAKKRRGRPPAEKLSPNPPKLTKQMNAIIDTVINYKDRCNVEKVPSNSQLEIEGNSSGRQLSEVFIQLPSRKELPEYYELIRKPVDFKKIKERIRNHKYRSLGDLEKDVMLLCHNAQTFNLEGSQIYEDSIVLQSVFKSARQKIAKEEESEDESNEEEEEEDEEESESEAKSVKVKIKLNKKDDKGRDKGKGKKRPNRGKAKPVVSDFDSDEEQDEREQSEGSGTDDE
# testDetails: MSD SMARCA2 degradation in NCI-H1299 cell line (24 h)
# Type: cell-based
# Design: HC: NCI-H1299 cells treated with DMSO; host or cells: NCI-H1299
# testSettings: NCI-H1299 cells, read-out: SMARCA2 MSD H1299 degradation 24 h: External Abs-DC50

Noted for COc1cc(C(=O)NCCCCCCCCCN2CCN(Cc3ccc(-c4cc(-c5ccccc5O)nnc4N)cc3)CC2)ccc1NC(=O)[C@@H]1N[C@@H](CC(C)(C)C)[C@](C#N)(c2ccc(Cl)cc2F)[C@H]1c1cccc(Cl)c1F [I-233] : its DC50 reads > 1000 nM

Noted for Cn1c(=O)n(C2CCC(=O)NC2=O)c2ccc(COCCCN3CCN(Cc4ccc(-c5cc(-c6ccccc6O)nnc5N)cc4)CC3)cc21 (stereo not drawn) [I-141] : its DC50 reads 100 to 500 nM

Noted for CN(CCCc1cnc(N2C3CCC2CN(c2cc(-c4ccccc4O)nnc2N)C3)nc1)CCCc1ccc2c(c1)n(C)c(=O)n2C1CCC(=O)NC1=O (stereo not drawn) [I-161] : its DC50 reads < 100 nM
